- TESTED SYSTEM: P2X purinoceptor 7 (Homo sapiens, UniProt Q99572)
- Sequence (Q99572 whole entry): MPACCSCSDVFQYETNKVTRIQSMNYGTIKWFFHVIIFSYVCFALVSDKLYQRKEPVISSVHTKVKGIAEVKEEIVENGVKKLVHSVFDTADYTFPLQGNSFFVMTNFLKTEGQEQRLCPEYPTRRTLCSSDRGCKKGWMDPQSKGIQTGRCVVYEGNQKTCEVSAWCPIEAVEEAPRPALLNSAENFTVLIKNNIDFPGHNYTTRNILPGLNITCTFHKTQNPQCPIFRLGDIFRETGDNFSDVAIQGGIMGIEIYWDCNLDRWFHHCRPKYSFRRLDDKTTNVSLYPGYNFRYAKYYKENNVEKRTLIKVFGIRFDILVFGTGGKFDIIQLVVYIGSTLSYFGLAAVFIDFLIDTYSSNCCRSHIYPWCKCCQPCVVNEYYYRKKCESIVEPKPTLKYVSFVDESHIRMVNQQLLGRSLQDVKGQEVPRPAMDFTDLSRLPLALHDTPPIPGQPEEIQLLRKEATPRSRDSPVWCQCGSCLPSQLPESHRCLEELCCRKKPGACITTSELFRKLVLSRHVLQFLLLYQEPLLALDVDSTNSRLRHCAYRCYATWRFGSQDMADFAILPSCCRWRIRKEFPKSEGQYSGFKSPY
- ASSAY PROCEDURE: Antagonist activity at human P2X7 receptor expressed in HEK293 cells assessed as inhibition of BzATP-induced EtBr uptake after 2 hrs by fluorescence assay relative to control
- Format: cell-based
VALUE KIND: pIC50
Just so you know, pIC50 here is -log10 of the concentration in molar units; reply with that number alone.

Asked: # pIC50 lookup, item `CCCOC(=O)c1cc2c(NC(=O)C34CC5CC(CC(C5)C3)C4)cccc2n(Cc2ccc(OC)cc2)c1=O`
Given back: 6.58

Asked: # pIC50 lookup, item `Nc1ccc(-c2ccc3c(NC(=O)CC45CC6CC(CC(C6)C4)C5)cccc3n2)cc1`
Given back: 8.00

Asked: # pIC50 lookup, item `COc1ccc(-c2ccc3c(NC(=O)CC45CC6CC(CC(C6)C4)C5)cccc3n2)cc1`
Given back: 7.74

Asked: # pIC50 lookup, item `COC(=O)c1cc2c(NC(=O)CC3CCCCC3)cccc2n(Cc2ccc(OC)cc2)c1=O`
Given back: 6.06

Asked: # pIC50 lookup, item `O=C(CC12CC3CC(CC(C3)C1)C2)Nc1cccc2nc(Cl)ccc12`
Given back: 8.40

Asked: # pIC50 lookup, item `O=C(CC12CC3CC(CC(C3)C1)C2)Nc1cccc2nc(-c3ccc(Cl)cc3)ccc12`
Given back: 6.91

Asked: # pIC50 lookup, item `COC(=O)c1ccc(-c2ccc3c(NC(=O)CC45CC6CC(CC(C6)C4)C5)cccc3n2)cc1`
Given back: 8.15

Asked: # pIC50 lookup, item `O=C(CC12CC3CC(CC(C3)C1)C2)Nc1cccc2nc(-c3ccc(O)cc3)ccc12`
Given back: 8.10

Asked: # pIC50 lookup, item `COC(=O)c1cc2c(NC(=O)C34CC5CC(CC(C5)C3)C4)cccc2n(Cc2ccc(F)cc2)c1=O`
Given back: 6.05

Asked: # pIC50 lookup, item `O=C(CC1CCCCC1)Nc1cccc2nc(Cl)ccc12`
Given back: 6.41

Asked: # pIC50 lookup, item `COC(=O)c1cc2c(NC(=O)C34CC5CC(CC(C5)C3)C4)cccc2n(Cc2ccc(Br)cc2)c1=O`
Given back: 6.09

Asked: # pIC50 lookup, item `CCOC(=O)c1cc2c(NC(=O)C34CC5CC(CC(C5)C3)C4)cccc2n(Cc2ccc(OC)cc2)c1=O`
Given back: 7.21

Asked: # pIC50 lookup, item `COC(=O)c1cc2c(NC(=O)C34CC5CC(CC(C5)C3)C4)cccc2n(Cc2ccc([N+](=O)[O-])cc2)c1=O`
Given back: 6.09

Asked: # pIC50 lookup, item `O=C(CC12CC3CC(CC(C3)C1)C2)Nc1cccc2nc(-c3ccc(CO)cc3)ccc12`
Given back: 8.52

Asked: # pIC50 lookup, item `COC(=O)c1cc2c(NC(=O)C34CC5CC(CC(C5)C3)C4)cccc2n(Cc2ccc(Cl)cc2)c1=O`
Given back: 6.14

Asked: # pIC50 lookup, item `O=C(CC12CC3CC(CC(C3)C1)C2)Nc1cccc2nc(-c3ccc(C(=O)O)cc3)ccc12`
Given back: 8.10

Asked: # pIC50 lookup, item `COC(=O)c1cc2c(NC(=O)CC34CC5CC(CC(C5)C3)C4)cccc2n(Cc2ccc(OC)cc2)c1=O`
Given back: 6.06

Asked: # pIC50 lookup, item `O=C(CC12CC3CC(CC(C3)C1)C2)Nc1cccc2nc(-c3ccc([N+](=O)[O-])cc3)ccc12`
Given back: 7.14
